- Test system: TK-10 renal
- procedure-summary: NCI tumour cell line growth inhibition, 48 h; in the data active = GI50 below about 0.43 µM; inactive = the rest
Possible outcomes: active, inactive

                                    molecule  assigned_class
 0  NS(=O)(=O)c1ccc(-n2nc(-c3ccc(Cl)cc3)cc2C2=CC(=O)C=CC2=O)cc1        inactive
 1         CCCCCCCCSC1=CC(=O)C(OC)=C(OC)C1=O        inactive
 2      N#Cc1c2ccccc2c2nnc3cc(Cl)c(Cl)cc3n12        inactive
 3  COC(=O)c1oc2c(C(=O)/C=C/c3ccc(OC)cc3)c(OCCCN3CCCCC3)ccc2c1C        inactive
 4  Cc1ccc(Cl)cc1Nc1nc(C(F)(F)F)ccc1C(=O)Oc1ccc(Cl)cc1        inactive
 5   N#C/C(=C/N1CCN(C(=O)c2ccco2)C1=S)C(N)=O        inactive
 6  O=Nc1c(-c2cccc([N+](=O)[O-])c2)nc2ncccn12        inactive
 7  COC(=O)c1ccc2c(c1)nc(-c1ccc(Cl)cc1)n2-c1cc(C(C)(C)C)[nH]n1        inactive
 8  COc1cccc2c1C(=O)c1c(O)c3c(c(O)c1C2=O)C[C@@](O)(C(C)=O)C[C@@H]3OC1CC(N)C(O)C(C)O1 (some centres undefined)          active
 9  CC(C)(C)CC(C)(C)Cc1ccc(OCCOCC[N+](C)(C)Cc2ccccc2)cc1        inactive
10  Cc1ccccc1NC(=O)NC(CC(N)=O)c1ccc2c(c1)nc(-c1cccc(Oc3ccc(C(C)(C)C)cc3)c1)n2CCCN1CCCCC1C (centres undefined)        inactive
11  CC1=C(C(=O)Nc2ccc(F)c(Cl)c2)C(c2cccc(Cl)c2)NC(=O)N1 (centres undefined)        inactive
12                  CSC(=S)N/N=C(\C)c1ccccn1        inactive
13    COc1ccc2c(CNCCCCO)cc3cc4c(cc3c2c1)OCO4        inactive
14  CC(C)[C@]12O[C@H]1[C@@H]1O[C@]13[C@]1(O[C@H]1C[C@H]1c4c(C(=O)c5ccccc5)oc(OC(=O)c5ccccc5)c4CC[C@@]13C)[C@@H]2O          active
15  O=C1c2cccnc2-c2nc(-c3ccc([N+](=O)[O-])cc3)cc3c2c1nc1ccccc13        inactive
16  CC1=C(C)C(=O)C(C(C)C2=C(C)C(=O)C(C)=C(C)C2=O)=C(C)C1=O        inactive
17  COC(=O)c1c(-c2ccccc2)csc1NC(=O)c1c(-c2ccccc2)noc1C        inactive
18  O=C1c2cc3c(cc2-c2c1c1ccc([N+](=O)[O-])cc1c(=O)n2CCCCl)OCO3        inactive

The values you see were collected from PubChem BioAssay (NCI).
